Cited source: patent US6482921B1

- System: Escherichia Coli MC 4100
- RUN DESCRIPTION: MIC broth microdilution, E. coli MC 4100 (wild type)
- Type: cell-based
- CONDITION LABEL: E. coli MC 4100
# Lookup of reported MIC (μg/ml) Broth microdilution keyed by entry

>  <MOLECULE>
C[C@@H]([C@H](NC(=O)[C@H](Cc1ccccc1)NC(=O)N[C@@H](Cc1c[nH]c2ccccc12)C(=O)O)C(=O)NC[C@H]1C[C@@H](O)[C@H](n2ccc(=O)[nH]c2=O)O1)N(C)C(=O)CN

>  <COMPARISON SIGN>
=

>  <MIC (μg/ml) Broth microdilution / µg/mL>
256

$$$$
>  <MOLECULE>
CC(C)CC(NC(=O)NC(Cc1ccc(O)cc1)C(=O)O)C(=O)NC(C(=O)NCC1CC(O)C(n2ccc(=O)[nH]c2=O)O1)C(C)N(C)C(=O)C(C)N (stereo not drawn)

>  <COMPARISON SIGN>
>

>  <MIC (μg/ml) Broth microdilution / µg/mL>
512

$$$$
>  <MOLECULE>
CC(C(NC(=O)C(Cc1ccccc1)NC(=O)NC(Cc1c[nH]c2ccccc12)C(=O)O)C(=O)NCC1CC(O)C(n2ccc(=O)[nH]c2=O)O1)N(C)C(=O)CCCCN (stereo not drawn)

>  <COMPARISON SIGN>
=

>  <MIC (μg/ml) Broth microdilution / µg/mL>
512

$$$$

---

- System: Mycobacterium smegmatis ATCC 19420
- RUN DESCRIPTION: MIC broth microdilution, M. smegmatis ATCC 19420
- CONDITION LABEL: 72 hours at 35° C., CAMHB
Measured MIC Broth microdilution M. smegmatis ATCC19420 values are reported for all entries that follow.
QUANTITY KIND: MIC Broth microdilution M. smegmatis ATCC19420 (µg/mL)

>  <MOLECULE>
C[C@H](N)C(=O)N(C)[C@@H](C)[C@H](NC(=O)[C@H](Cc1ccccc1)NC(=O)N[C@@H](Cc1ccc(O)cc1)C(=O)O)C(=O)NC[C@H]1C[C@@H](O)[C@H](n2ccc(=O)[nH]c2=O)O1

>  <TARGET>
Mycobacterium smegmatis ATCC 19420

>  <UNITS LABEL>
µg/mL

>  <VALUE OBSERVED>
16

$$$$
>  <MOLECULE>
CC(N)C(=O)N(C)C(C)C(NC(=O)C(Cc1ccc(-c2ccccc2)cc1)NC(=O)NC(Cc1c[nH]c2ccccc12)C(=O)O)C(=O)NCC1CC(O)C(n2ccc(=O)[nH]c2=O)O1 (stereo not drawn)

>  <TARGET>
Mycobacterium smegmatis ATCC 19420

>  <UNITS LABEL>
µg/mL

>  <VALUE OBSERVED>
4

$$$$
>  <MOLECULE>
CC(N)C(=O)N(C)C(C)C(NC(=O)C(Cc1csc2ccccc12)NC(=O)NC(Cc1ccc(O)cc1)C(=O)O)C(=O)NCC1CC(O)C(n2ccc(=O)[nH]c2=O)O1 (stereo not drawn)

>  <TARGET>
Mycobacterium smegmatis ATCC 19420

>  <UNITS LABEL>
µg/mL

>  <VALUE OBSERVED>
8

$$$$

---

Below is a list of entries, each paired with its recorded MIC (μg/ml) Broth microdilution value.
- Tested on: Escherichia Coli MC 4100
- RUN DESCRIPTION: MIC broth microdilution, E. coli MC 4100 (wild type)
- Assay type: cell-based
- CONDITION LABEL: E. coli MC 4100

>  <COMPOUND>
C[C@H](N)C(=O)N(C)[C@@H](C)[C@H](NC(=O)[C@H](C)NC(=O)N[C@@H](Cc1c[nH]c2ccccc12)C(=O)O)C(=O)NC[C@@H]1C[C@@H](O)[C@@H](n2ccc(=O)[nH]c2=O)O1

>  <COMPARISON SIGN>
=

>  <MIC (μg/ml) Broth microdilution [µg/mL]>
16

$$$$
>  <COMPOUND>
C[C@H](NC(=O)N[C@@H](Cc1c[nH]c2ccccc12)C(=O)O)C(=O)N[C@H](C(=O)NC[C@H]1C[C@@H](O)[C@H](n2ccc(=O)[nH]c2=O)O1)[C@H](C)N(C)C(=O)[C@@H](C)N

>  <COMPARISON SIGN>
>

>  <MIC (μg/ml) Broth microdilution [µg/mL]>
512

$$$$
>  <COMPOUND>
CC(N)C(=O)N(C)C(C)C(NC(=O)C(Cc1ccc([N+](=O)[O-])cc1)NC(=O)NC(Cc1ccc(O)cc1)C(=O)O)C(=O)NCC1CC(O)C(n2ccc(=O)[nH]c2=O)O1 (stereo not drawn)

>  <COMPARISON SIGN>
=

>  <MIC (μg/ml) Broth microdilution [µg/mL]>
16

$$$$
